biological target: human h-PGDS (Homo sapiens)
measurementType: IC50 (nM)

Examples with their reported IC50 follow.
# molecule, unitSpec, IC50
measured = [
    ("Cc1cn(NC(=O)c2cnc(-c3cccc(C(F)F)c3)nc2)c2ccc(F)cc12", "nM", 17),
    ("CS(=O)(=O)c1ccc2ccn(NC(=O)c3cnc(-c4cccc(F)c4)nc3)c2c1", "nM", 8),
    ("O=C(NN1CCN(CC(=O)N2CCOCC2)CC1)c1cnc(-c2ccccc2)nc1", "nM", 832),
]

[A] Cc1nc(-c2cccc(F)c2)ncc1C(=O)Nn1cc(C)c2cc(F)ccc21
[B] O=C(Nn1ccc2ncccc21)c1cnc(-c2cccc(F)c2)nc1
[C] O=C(NN1CCCCC1=O)c1cnc(-c2ccccc2)nc1
Ask | Thanks in advance: please rank these 3 entries by IC50, highest to lowest. Thanks in advance for listing the labels in the requested order.
Reply | C, B, A
(C: 55 nM, B: 18 nM, A: 6 nM)

----------
human h-PGDS (Homo sapiens, UniProt O60760): reported pIC50 for various compounds.
Sequence (O60760 whole entry): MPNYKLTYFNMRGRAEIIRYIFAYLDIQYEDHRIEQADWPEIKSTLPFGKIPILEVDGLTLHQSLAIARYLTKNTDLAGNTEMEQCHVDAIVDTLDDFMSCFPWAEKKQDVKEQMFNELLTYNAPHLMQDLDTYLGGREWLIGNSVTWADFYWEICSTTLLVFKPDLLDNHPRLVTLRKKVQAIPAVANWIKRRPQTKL
pIC50: −log10 of the molar value.
measurementType: pIC50

# chemSmiles, pIC50
rows = [
    ("Cc1nc(-c2cccc(F)c2)ncc1C(=O)Nn1ccc2cc(F)ccc21", 7.72),
]

[1] O=C(NN1CCN(CCO)CC1)c1cnc(C(=O)c2ccccc2)nc1
[2] Cc1nc(-c2cccc(F)c2)ncc1C(=O)Nn1ccc2ccccc21
Ask | 1 or 2 : whose pIC50 is greater? Provide the label of your selected option as the answer.
Reply | 2
(2: 8.00, 1: 6.18)

[A] O=C(Nn1ccc2cc(F)ccc21)c1cnc(-c2ccccn2)nc1
[B] O=C(NN1CCc2ccccc21)c1cnc(-c2ccccc2)nc1
[C] O=C(NN1CCOCC1)c1cnc(C(=O)c2ccccc2)nc1
[D] CN(NC(=O)c1cnc(-c2ccccc2)nc1)C1CCCCC1
Ask | Rank the items in ascending order with respect to pIC50. Could you list the labels in the order requested?
Reply | C, D, A, B
(C: 6.47, D: 6.83, A: 7.74, B: 8.70)

----------
Observed IC50 values for human h-PGDS (Homo sapiens, UniProt O60760) are listed in what follows.
measurementType: IC50 (nM)

# compound, unitSpec, IC50
rows = [
    ("Cc1nc(-c2cccc(F)c2)ncc1C(=O)Nn1cc(C)c2ncccc21", "nM", 2),
    ("Cc1nc(-c2cccc(F)c2)ncc1C(=O)Nn1cc(-c2nnn[nH]2)c2cc(F)ccc21", "nM", 5),
    ("CCc1cn(NC(=O)c2cnc(-c3ncccn3)nc2C)c2ccc(C(F)(F)F)cc12", "nM", 8),
    ("CC1Cc2ccccc2N1NC(=O)c1cnc(-c2cccc(F)c2)nc1 (stereo not shown)", "nM", 4),
    ("COc1ccccc1-c1ncc(C(=O)NN2CC(C)=NNC2=O)cn1", "nM", 199),
    ("O=C(Nn1ccc2c(F)cccc21)c1cnc(-c2cccc(F)c2)nc1", "nM", 11),
]

[P] Cc1nc(-c2ccccc2)ncc1C(=O)NN1CCc2ccccc21
[Q] Cc1cn(NC(=O)c2cnc(-c3cccnc3)nc2)c2ccc(F)cc12
[R] O=C(NN1CCOc2ccc(F)cc21)c1cnc(-c2ccccc2)nc1
Ask | hey, can you rank those compounds up there by IC50? biggest number first please Labels, requested order.
Reply | R, Q, P
(R: 21 nM, Q: 10 nM, P: 5.5 nM)

----------
Observed IC50 for human h-PGDS (Homo sapiens, UniProt O60760), reported per entry below.
measurementType: IC50 (nM)

Below, 2 compounds whose answers are already recorded.
# compound, unitSpec, IC50
rows = [
    ("Cc1nc(-c2ccccn2)ncc1C(=O)Nn1ccc2ccccc21", "nM", 5),
    ("CC1Cc2ccccc2N1NC(=O)c1cnc(-c2ccccc2)nc1 (stereo not shown)", "nM", 4),
]

[a] O=C(Nn1ccc2ccccc21)c1cnc(-c2ccccn2)nc1
[b] O=C(NNc1ccccc1F)c1cnc(-c2ccccc2)nc1
Ask | Could you determine which record has the numerically smaller IC50? Candidates: a and b Bench note: the answer is the label of the chosen record.
Reply | a
(a: 4.5 nM, b: 12 nM)
